- experiment: UV-Vis absorption and fluorescence spectroscopy of the Oxazine library
- Format: physicochemical
- measurement-conditions: Beer's Law plots
assay-readout: Extinction coefficient (M⁻¹ cm⁻¹)
Answer in M⁻¹ cm⁻¹, number only, no unit symbol.

>  <compound>
c1c2c(cc3c1Oc1cc4c(cc1=N3)OCCN=4)OCCN2 [LGW03-65]

>  <unit-abbrev>
M⁻¹ cm⁻¹

>  <Extinction coefficient>
28067

$$$$
>  <compound>
CCN1CCc2cc3nc4ccc(=[N+](CC)CC)cc-4oc3cc21 [LGW05-84]

>  <unit-abbrev>
M⁻¹ cm⁻¹

>  <Extinction coefficient>
46048

$$$$
>  <compound>
CC[N+](CC)=c1ccc2nc3cc4c(cc3oc-2c1)NCCO4 [LGW03-37]

>  <unit-abbrev>
M⁻¹ cm⁻¹

>  <Extinction coefficient>
48849

$$$$
>  <compound>
CC/N=c1/cc2oc3cc(NCC)cc(C)c3nc-2c(C)c1 [LGW02-95]

>  <unit-abbrev>
M⁻¹ cm⁻¹

>  <Extinction coefficient>
48653

$$$$
>  <compound>
CC/N=c1/cc2oc3c(C)c(NCC)ccc3nc-2cc1C [LGW02-58]

>  <unit-abbrev>
M⁻¹ cm⁻¹

>  <Extinction coefficient>
42685

$$$$

Problem: Quick check: Extinction coefficient of CCN(CC)c1cc2oc3cc(=[N+](CC)CC)ccc-3nc2cc1C [LGW03-23] ?
Solution: 23099

Problem: Return reported Extinction coefficient; argument: CCN(CC)c1ccc2nc3ccc(=[N+](CC)CC)cc-3oc2c1.[O-][Cl+3]([O-])([O-])[O-] [OX-1, reference compound]
Solution: 93211

Problem: I would be grateful if you could share the reported Extinction coefficient for CC/N=c1/cc2oc3cc4c(cc3nc-2cc1C)OCCN4CC [LGW05-75] .
Solution: 57360

Problem: I would be grateful if you could share the reported Extinction coefficient for CCNc1cc2oc3cc(=[N+](CC)CC)ccc-3nc2cc1F [LGW05-82] .
Solution: 36833

Problem: What does the data say about its Extinction coefficient? Entry: CC/N=c1/cc2oc3cc(N)c(C)cc3nc-2cc1C [LGW06-10]
Solution: 55807

Problem: Extinction coefficient for CCN1c2cc3c(cc2C(C)=CC1(C)C)N=c1cc2c(cc1O3)=[N+](CC)C(C)(C)C=C2C [LGW05-66] ?
Solution: 34002

Problem: Item under review: CC/N=c1/cc2oc3cc4c(cc3nc-2cc1C)C(C)=CC(C)(C)N4 [LGW01-44] . Reported Extinction coefficient?
Solution: 40124

Problem: Please give the measured Extinction coefficient for this compound: CC[N+](CC)=c1ccc2nc3cc(C)c(N)cc3oc-2c1 [LGW06-11]
Solution: 31843

Problem: What value of Extinction coefficient has been reported for the following compound? CC[N+](CC)=c1ccc2nc3cc4c5c(c3oc-2c1)CCCN5CCC4 [LGW02-86]
Solution: 39472

Problem: If you can, please state the reported Extinction coefficient value of CC/N=c1/cc2oc3cc(N4CCCC4)ccc3nc-2cc1C [LGW03-06] .
Solution: 35942

Problem: Look up Extinction coefficient for this compound: CC[N+](CC)=c1ccc2nc3ccc(N(C)C)cc3oc-2c1 [LGW03-76]
Solution: 66111

Problem: Using the record for CC/N=c1/cc2oc3cc(N(CC)CC)c(C)cc3nc-2cc1C [LGW01-23] , report its Extinction coefficient.
Solution: 62445

Problem: Item CC/N=c1/cc2oc3cc(N(C)C)ccc3nc-2cc1C [LGW04-36] has what recorded Extinction coefficient?
Solution: 60819

Problem: Sample CC/N=c1/cc2oc3c4c5c(cc3nc-2cc1C)CCCN5CCC4 [LGW01-99] — what was its Extinction coefficient?
Solution: 56046

Problem: Extinction coefficient for CC/N=c1/cc2oc3cc4c(cc3nc-2cc1C)CCCN4CC [LGW02-91] ?
Solution: 59971
